# measurement.description: Cytotoxicity against human Raji cells assessed as cell viability at 32 nmol after 48 hrs by trypan blue staining method
# Format: cell-based
# recorded.conditions: read-out: Activity

sample.smiles	viability at 48 h, 32 nmol (%)
COc1ccc(C/C=C/c2cccc(O)c2OC)c(OC)c1O	60
COc1c(O)cccc1/C=C/Cc1ccc(O)c(OC)c1OC	60
COc1c(O)cccc1/C=C/Cc1ccc(O)c(O)c1OC	70
COc1ccc(O)c(/C=C/Cc2ccc(O)c(OC)c2OC)c1	70

====

Each entry below lists one item and its recorded Activity value.
# System: Raji
# measurement.description: Inhibition of 12-O-tetradecanoylphorbol-13-acetate-induced EBV-early antigen activation in human Raji cells assessed as EA induction at 16 nmol relative to 12-O-tetradecanoylphorbol-13-acetate
# Format: cell-based
# Set-up: scale not given: the % may be the effect or the level left
# recorded.conditions: human gammaherpesvirus 4

molecule	units	Activity
COc1ccc(O)c(/C=C/Cc2ccc(O)c(OC)c2OC)c1 [DALBERATIN B]	%	31.1
COc1ccc(C/C=C/c2cccc(O)c2OC)c(OC)c1O [DALBERATIN C]	%	20.9
COc1c(O)cccc1/C=C/Cc1ccc(O)c(O)c1OC [DALBERATIN E]	%	16.4
COc1c(O)cccc1/C=C/Cc1ccc(O)c(OC)c1OC [DALBERATIN A]	%	18.5

====

# Test system: Raji
# measurement.description: Inhibition of 12-O-tetradecanoylphorbol-13-acetate-induced EBV-early antigen activation in human Raji cells assessed as EA induction at 0.32 nmol relative to 12-O-tetradecanoylphorbol-13-acetate
# Assay type: cell-based
# Parameters: scale not given: the % may be the effect or the level left
# recorded.conditions: human gammaherpesvirus 4
Exam item: assign Criterion met to entries whose Activity is below 90% and Criterion not met to entries at or above 90%. Note that a value of exactly 90% receives Criterion not met.

sample.smiles	cat
COc1c(O)cccc1/C=C/Cc1ccc(O)c(O)c1OC	Criterion met
COc1c(O)cccc1/C=C/Cc1ccc(O)c(OC)c1OC	Criterion met
COc1ccc(C/C=C/c2cccc(O)c2OC)c(OC)c1O	Criterion met
CC1=C(/C=C/C(C)=C/C=C/C(C)=C/C=C/C=C(C)/C=C/C=C(C)/C=C/C2=C(C)CCCC2(C)C)C(C)(C)CCC1	Criterion not met
